Data origin: PubChem BioAssay

The reader will find reported composite z-score values listed item by item below.
Assay: small-molecule binders of probe aInhba, primary screen, biochemical, small-molecule microarray, 635/667 nm fluorescence (AID 1148);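 note: score merges 667nm spot fluorescence with signal-to-noise for antibody binding to printed compounds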
Details: higher = more signal

COMPOUND	composite z-score
CN1C(=O)C2CC=C(C3=CCO[C@@H]3[C@H]3CCCN3S(=O)(=O)c3ccccc3[N+](=O)[O-])CC2C1=O (stereo not given in full)	0.0516
COCCCNC(=O)[C@@]1(Cc2ccccc2I)c2ccccc2C(=O)N(C2CCCCC2)[C@H]1c1ccc(CO)cc1	0.115
O=C1O[C@H](c2ccccc2)[C@H](c2ccccc2)N2[C@H]1[C@@H](C(=O)O)[C@]1(C(=O)Nc3ccc(C#CC4(O)CCCCCC4)cc31)[C@H]2c1ccccc1OCCO	0.397
CC1C2C(CCCO)=CC(C3C(=O)N(C)C(=O)C23)N1Cc1cccc(OC(F)(F)F)c1 (stereo not given)	0.143
COCCOC(=O)N1C(=O)[C@@]2(c3cc(C#CCCO)ccc31)[C@H](c1ccc(O)cc1)N1[C@H](c3ccccc3)[C@H](c3ccccc3)OC(=O)[C@H]1[C@@H]2C(=O)NC[C@H](O)c1ccccc1	0.0101
